- Test summary: TIMS collision cross section in N2 (TIMS CCS N2); higher = larger gas-phase ion size
- Run conditions: ion species: [M-H+Na+HCO2H]-; drift gas: N2 (99.4% N2, 0.6% O2); calibration: Stow et al. 2017 values for Agilent ESI-L Low Concentration Tune Mix; ionization: negative ESI
± gives the uncertainty stated by the source.

# Molecule, TIMS collision cross section in N2
measured = [
    ("COc1ccc(-c2cc(=O)c3c(O)c(OC)c(O)cc3o2)cc1OC [Eupatilin]", "201.78 ± 0.15 Å²"),
    ("COc1cc2oc(-c3ccc(O)cc3O)c(CC=C(C)C)c(=O)c2c(O)c1/C=C/C(C)C [Artocarpin]", "229.53 ± 0.64 Å²"),
    ("C[C@H]1[C@H](C)CC[C@]2(C(=O)O)CC[C@]3(C)C(=CC[C@@H]4[C@@]5(C)CC[C@H](O)C(C)(C)[C@@H]5CC[C@]43C)[C@H]12 [Ursolic acid]", "229.46 ± 0.98 Å²"),
    ("COc1cc2c(=O)c(-c3ccc(O)cc3)coc2cc1O [Glycitein]", "184.69 ± 0.23 Å²"),
    ("C[C@@H]1O[C@@H](O[C@H]2[C@H](Oc3cc(O)c4c(c3)O[C@H](c3ccc(O)c(O)c3)CC4=O)O[C@H](CO)[C@@H](O)[C@@H]2O)[C@H](O)[C@H](O)[C@H]1O [eriodictyol-7-neohesperidoside]", "234.56 ± 0.42 Å²"),
    ("O=c1c(O[C@@H]2O[C@H](CO)[C@@H](O)[C@H](O)[C@H]2O)c(-c2ccc(O)cc2)oc2cc(O)cc(O)c12 [kaempferol-3-O-glucoside]", "222.09 ± 0.65 Å²"),
]

----------
- Test summary: TIMS collision cross section in N2 (TIMS CCS N2); higher = larger gas-phase ion size
- Run conditions: ion species: [M-H]-; drift gas: N2 (99.4% N2, 0.6% O2); calibration: Stow et al. 2017 values for Agilent ESI-L Low Concentration Tune Mix; ionization: negative ESI
± gives the uncertainty stated by the source.

# Compound, TIMS collision cross section in N2
measured = [
    ("O=C1c2ccc(O)cc2O[C@H](c2ccc(O)c(O)c2)[C@H]1O [3,7,3',4'-Tetrahydroxyflavanone (fustin)]", "154.57 ± 0.12 Å²"),
    ("O=c1c(-c2ccc(O)cc2)coc2cc(O)ccc12", "157.59 ± 0.0071 Å²"),
    ("O=c1cc(-c2ccc(O)cc2)oc2ccccc12 [4'-Hydroxyflavone]", "151.91 ± 0.13 Å²"),
    ("O=c1cc(-c2ccccc2)oc2cccc(O)c12 [5-Hydroxyflavone]", "156 ± 0.14 Å²"),
    ("O=C1C[C@@H](c2ccc(O)cc2)Oc2cc(O)cc(O)c21", "163.01 ± 0.16 Å²"),
    ("O=c1cc(-c2ccccc2)oc2ccc(O)cc12 [6-Hydroxyflavone]", "155.92 ± 0.15 Å²"),
    ("COc1cc([C@@H]2Oc3c(O)cc([C@H]4Oc5cc(O)cc(O)c5C(=O)[C@@H]4O)cc3[C@H]2CO)ccc1O", "201.63 ± 0.24 Å²"),
    ("O=c1cc(-c2ccccc2)oc2cc(O)cc(O)c12", "156.14 ± 0.1 Å²"),
    ("O=c1cc(-c2ccc(O)cc2)oc2cc(O)ccc12 [7,4'-dihydroxyflavone]", "157.01 ± 0.16 Å²"),
]

----------
- Test summary: TIMS collision cross section in N2 (TIMS CCS N2); higher = larger gas-phase ion size
- Run conditions: ion species: [M-H]-; drift gas: N2 (99.4% N2, 0.6% O2); calibration: Stow et al. 2017 values for Agilent ESI-L Low Concentration Tune Mix; ionization: negative ESI
Label scheme for TIMS collision cross section in N2: lower than 200 Å² is N, 200 Å² and above is Y.

# Compound, Category label
measured = [
    ("O=C(/C=C/c1ccccc1)c1ccc(O)cc1O [2',4'-Dihydroxychalcone]", "N"),
    ("COc1ccc(C2CC(=O)c3ccc(O)cc3O2)cc1OC (centres undefined) [3',4'-Dimethoxy-7-hydroxyflavanone]", "N"),
    ("COc1ccc([C@@H]2CC(=O)c3c(O)cc(O[C@@H]4O[C@H](CO)[C@@H](O)[C@H](O)[C@H]4O[C@@H]4O[C@@H](C)[C@H](O)[C@@H](O)[C@H]4O)cc3O2)cc1O [Neohesperidin]", "Y"),
    ("COc1cc2c(=O)c(-c3ccc(O)cc3)coc2cc1O [Glycitein]", "N"),
    ("C[C@@H]1O[C@@H](OC[C@H]2O[C@@H](Oc3c(-c4ccc(O)c(O)c4)oc4cc(O)cc(O)c4c3=O)[C@H](O)[C@@H](O)[C@@H]2O)[C@H](O)[C@H](O)[C@H]1O [Rutin]", "Y"),
    ("O=c1cc(-c2ccccc2)oc2cc(O)ccc12 [7-Hydroxyflavone]", "N"),
    ("COc1cc(OC)c(C(=O)C=Cc2ccc(O)cc2)c(OC)c1 [4-Hydroxy-2',4',6'-trimethoxychalcone (flavokawain A)]", "N"),
    ("COc1cc(O)c2c(=O)cc(-c3cc(OC)c(OC)c(OC)c3)oc2c1 [Corymbosin]", "N"),
    ("Cc1c(O)c(C)c2c(c1O)C(=O)C[C@@H](c1ccc(O)cc1)O2 [Farrerol]", "N"),
    ("O=c1c(O)c(-c2cc(O)c(O)c(O)c2)oc2cc(O)ccc12 [3,7,3',4',5'-Pentrahydroxyflavone (robinetin)]", "N"),
    ("C[C@@H]1O[C@@H](O[C@H]2[C@H](Oc3cc(O)c4c(c3)O[C@H](c3ccc(O)cc3)CC4=O)O[C@H](CO)[C@@H](O)[C@@H]2O)[C@H](O)[C@H](O)[C@H]1O [Naringin]", "Y"),
    ("CCCCCCCCCCO[C@@H]1O[C@H](CO)[C@@H](O)[C@H](O)[C@H]1O [n-Decyl-beta-D-glucopyranoside]", "N"),
    ("CC(C)=CCC1C(=O)C(C(=O)CC(C)C)=C(O)C(O)(CC=C(C)C)C1=O (centres undefined) [Humulone]", "N"),
    ("CC(C)=CCc1c(O)cc2c(c1O)C(=O)C[C@@H](c1ccc(O)cc1)O2 [6-prenylnaringenin]", "N"),
    ("O=C1C[C@@H](c2ccc(O)c(O)c2)Oc2cc(O)cc(O)c21 [Eriodictyol]", "N"),
    ("O=c1c(-c2ccc(O)cc2)coc2cc(O)cc(O)c12 [Genistein]", "N"),
    ("CCCCCCCCCCCCC(=O)O [n-Tridecanoic acid]", "N"),
    ("O=c1cc(-c2ccc(O)c(O)c2)oc2cc(O)cc(O)c12 [Luteolin]", "N"),
    ("Oc1ccc2c(c1)O[C@H]1c3ccc(O)cc3OC[C@@H]21 [Demethyl medicarpin]", "N"),
    ("O=c1c(-c2ccc(O)cc2)coc2cc(O[C@@H]3O[C@H](CO)[C@@H](O)[C@H](O)[C@H]3O)cc(O)c12 [Genistin]", "Y"),
    ("O=c1c(O)c(-c2ccc(O)cc2)oc2cc(O)cc(O)c12 [Kaempferol]", "N"),
    ("COc1ccc(C2CC(=O)c3c(ccc(O)c3O)O2)cc1OC (centres undefined) [5,6-dihydroxy-3',4'-dimethoxy-flavanone]", "N"),
    ("O=C1CC(c2ccc(O)c(O)c2)Oc2cc(O)c(O)cc21 (centres undefined) [6,7,3',4'-Tetrahydroxyflavanone]", "N"),
    ("CC(C)=CCc1c(O)ccc2c1O[C@H](c1ccc(O)cc1)CC2=O [isobavachin]", "N"),
    ("COc1ccc(C2CC(=O)c3c(O)cc(OC)cc3O2)cc1 (centres undefined) [7,4'-Dimethoxy-5-hydroxyflavanone]", "N"),
    ("COc1ccc(-c2cc(=O)c3c(O)c(OC)c(O)c(OC)c3o2)cc1 [nevadensin]", "N"),
    ("CCCCCCCCCCCCCCCCC(=O)O [Heptadecanoic acid]", "N"),
    ("CC1(C)CC[C@]2(C(=O)O)CC[C@]3(C)C(=CC[C@@H]4[C@@]5(C)C[C@H](O)[C@H](O)[C@@](C)(CO)[C@@H]5CC[C@]43C)[C@@H]2C1 [bayogenin]", "Y"),
]
